target: Beta-secretase 1 (Homo sapiens, UniProt P56817); test: Inhibitory activity against beta-secretase 1 (BACE1) at 0.2 uM
Sequence (P56817 whole entry): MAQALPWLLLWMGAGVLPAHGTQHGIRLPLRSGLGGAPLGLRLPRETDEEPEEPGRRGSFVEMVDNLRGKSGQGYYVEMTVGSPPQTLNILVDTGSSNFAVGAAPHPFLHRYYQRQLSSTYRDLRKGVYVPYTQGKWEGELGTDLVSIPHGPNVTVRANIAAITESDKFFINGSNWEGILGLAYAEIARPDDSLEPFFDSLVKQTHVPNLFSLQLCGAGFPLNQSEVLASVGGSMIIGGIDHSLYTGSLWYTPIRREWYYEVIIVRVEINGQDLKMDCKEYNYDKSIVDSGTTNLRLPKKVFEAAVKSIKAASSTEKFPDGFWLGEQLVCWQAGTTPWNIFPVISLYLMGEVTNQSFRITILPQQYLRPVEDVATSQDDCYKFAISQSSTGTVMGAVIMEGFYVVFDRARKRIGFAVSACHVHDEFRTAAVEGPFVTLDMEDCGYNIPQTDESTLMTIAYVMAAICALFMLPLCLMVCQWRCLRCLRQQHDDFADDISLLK
Numbered stars: 1 amine (or outer) side, 2 acyl side, 3 side chain; on linkers, the order of the positions; unused ones are H or OH. Square brackets hold non-standard residues; d marks the D form. Peptide text beside a SMILES is read from it. * marks the point of attachment. β3hPhe(2R-OH) = O=C([C@H](O)[C@H](Cc1ccccc1)N[*:1])[*:2]; Tetrazole5carbonyl = O=C(c1nn[nH]n1)*; Oxalyl = O=C(C(=O)[*:2])[*:1]; Dap = NC[C@H](N)C(=O)O
Recorded inhibition for the following molecules
Write the number in % without appending the unit.

Known inhibition results, listed for orientation:
- molecule: "CC(C)C[C@H](NC(=O)[C@@H](NC(=O)[C@@H](N)CNC(=O)c1nn[nH]n1)C(C)C)C(=O)N[C@@H](Cc1ccccc1)[C@@H](O)C(=O)Nc1cc(C(=O)O)cc(C(=O)O)c1"
  inhibition / %: 98.1
- molecule: "CC(C)C[C@H](NC(=O)[C@@H](NC(=O)[C@H](CN)NC(=O)C(=O)O)C(C)C)C(=O)N[C@@H](Cc1ccccc1)[C@@H](O)C(=O)Nc1cccc(C(=O)O)c1"
  inhibition / %: 58.6

Could you share which inhibition value was measured for CC(C)C[C@H](NC(=O)[C@@H](NC(=O)[C@@H](N)CNC(=O)c1nn[nH]n1)C(C)C)C(=O)N[C@@H](Cc1ccccc1)[C@@H](O)C(=O)N[C@@H](CC(=O)O)C(=O)N[C@@H](C)C(=O)N[C@@H](CCC(=O)O)C(=O)O (H-[Dap](Tetrazole5carbonyl)VL[β3hPhe(2R-OH)]DAE-OH) ?
73.1

Entry `CC(C)C[C@H](NC(=O)[C@@H](NC(=O)[C@@H](N)CNC(=O)C(=O)O)C(C)C)C(=O)N[C@@H](Cc1ccccc1)[C@@H](O)C(=O)Nc1cc(C(=O)O)cc(C(=O)O)c1` : reported inhibition = ?
96.7

Given `CC(C)C[C@H](NC(=O)[C@@H](NC(=O)[C@@H](N)CNC(=O)C(=O)O)C(C)C)C(=O)N[C@@H](Cc1ccccc1)[C@@H](O)C(=O)Nc1cccc(C(=O)O)c1` , state its recorded inhibition.
85.5

Given the molecule `CC(C)C[C@H](NC(=O)[C@@H](NC(=O)[C@@H](N)CNC(=O)c1nn[nH]n1)C(C)C)C(=O)N[C@@H](Cc1ccccc1)[C@@H](O)C(=O)Nc1cccc(C(=O)O)c1` , what is its reported inhibition?
87.1

Value lookup for inhibition; key = CC(C)C[C@H](NC(=O)[C@@H](NC(=O)[C@@H](N)CNC(=O)C(=O)O)C(C)C)C(=O)N[C@@H](Cc1ccccc1)[C@@H](O)C(=O)N[C@@H](CC(=O)O)C(=O)N[C@@H](C)C(=O)N[C@@H](CCC(=O)O)C(=O)O (H-[Dap](Oxalyl)VL[β3hPhe(2R-OH)]DAE-OH)
57.6
